Source listed as patent US5559153A.

Listed next: entries and their corresponding IC50.
Target: Na^+ /H^+ exchanger of rabbit erythrocytes (Oryctolagus cuniculus, UniProt P23791)
Construct: Na^+ influx into the erythrocytes via Na^+ /H^+ exchange; endogenous in cells; host or cells: intact erythrocytes from blood of cholesterol-fed New Zealand White rabbits (Ivanovas)
Sequence (P23791 whole entry): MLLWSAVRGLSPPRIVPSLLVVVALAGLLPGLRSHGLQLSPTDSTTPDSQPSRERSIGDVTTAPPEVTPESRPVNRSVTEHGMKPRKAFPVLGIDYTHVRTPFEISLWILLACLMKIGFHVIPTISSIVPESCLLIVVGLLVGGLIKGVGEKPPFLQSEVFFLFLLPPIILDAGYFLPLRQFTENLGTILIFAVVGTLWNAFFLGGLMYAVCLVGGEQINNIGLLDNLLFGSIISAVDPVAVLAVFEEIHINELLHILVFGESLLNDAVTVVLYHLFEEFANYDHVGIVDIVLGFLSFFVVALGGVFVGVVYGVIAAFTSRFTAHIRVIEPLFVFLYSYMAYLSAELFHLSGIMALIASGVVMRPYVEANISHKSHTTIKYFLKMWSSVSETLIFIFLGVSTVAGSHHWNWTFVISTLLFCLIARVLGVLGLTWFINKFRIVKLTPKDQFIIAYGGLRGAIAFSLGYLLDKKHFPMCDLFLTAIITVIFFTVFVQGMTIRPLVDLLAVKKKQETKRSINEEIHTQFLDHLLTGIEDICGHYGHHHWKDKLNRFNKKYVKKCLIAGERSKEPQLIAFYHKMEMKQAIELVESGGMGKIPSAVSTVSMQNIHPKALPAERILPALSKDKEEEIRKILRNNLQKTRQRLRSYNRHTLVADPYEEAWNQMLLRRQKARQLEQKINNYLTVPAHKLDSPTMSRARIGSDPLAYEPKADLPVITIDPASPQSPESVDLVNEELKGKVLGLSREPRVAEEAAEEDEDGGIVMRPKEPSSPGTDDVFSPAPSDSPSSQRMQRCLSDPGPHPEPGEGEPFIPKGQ
Assay: Inhibition of the Na^+ /H^+ exchanger of rabbit erythrocytes (Na^+ influx by flame photometry)
Assay type: cell-based, rabbit (New Zealand White)
Conditions: pH 7.4, 37° C., Na^+ influx in hyperosmolar salt/sucrose medium
Where a name gives a salt, the structure may show the parent alone.

Known IC50 results, listed for orientation:
>>> value_reported("CCNC(=S)Nc1cc(C(=O)NC(=N)N)ccc1Cl [Example 17, hydrochloride]")
"3 to 5 µM"
>>> value_reported("N=C(N)NC(=O)c1cc(Cl)c(NC(=O)Nc2ccccc2)c(Cl)c1 [Example 21, hydrochloride]")
"1 µM"
>>> value_reported("CN(C)C(=O)Nc1ccc(Cl)cc1C(=O)NC(=N)N [Example 3, hydrochloride]")
"3 µM"
>>> value_reported("CCCNC(=O)Nc1c(Cl)cc(C(=O)NC(=N)N)cc1Cl [Example 20, hydrochloride]")
"2 to 5 µM"
>>> value_reported("CC(C)(C)NC(=O)Nc1ccc(Cl)cc1C(=O)NC(=N)N [Example 7, hydrochloride]")
"3 to 8 µM"

Consider the additional molecule presented here.
Fill in reported IC50 for this entry: N=C(N)NC(=O)c1cc(Cl)ccc1NC(=O)N1CCCCC1 [Example 1]
1 to 2 µM
